Where do these numbers come from? They come from the supplement of paper PMC8728848.

# system-name: GlcNAc(b1-3)Gal(b1-4)GlcNAc(b1-6)[Gal(b1-3)]GalNAc
# test: glycan array binding signal (z-score within array); higher = stronger binding
# settings: glycan notation: IUPAC condensed, linker removed
This is one part of a sample in which the strongest signals are shown more often than they occur.
readout-kind: glycan array binding signal (z-score)

Per the record, Flo1 (Saccharomyces cerevisiae), P32768 (protein) SGATEACLPAGQRKSGMNINFYQYSLKDSSTYSNAAYMAYGYASKTKLGSVGGQTDISIDYNIPCVSSSGTFPCPQEDSYGNWGCKGMGACSNSQGIAYWSTDLFGFYTTPTNVTLEMTGYFLPPQTGSYTFKFATVDDSAILSVGGATAFNCCAQQQPPITSTNFTIDGIKPWGGSLPPNIEGTVYMYAGYYYPMKVVYSNAVSWGTLPISVTLPDGTTVSDDFEGYVYSFDDDLSQSNCTVPDPSNY has glycan array binding signal (z-score) of -0.618
